target: human V1b receptor (Homo sapiens, UniProt P47901); construct: expressed in transfected cells; host or cells: CHO cells; assay: V1b receptor binding assay ([3H](Arg8)-vasopressin, crude membranes of CHO cells); conditions: 0.1 μmol/L test drug, V1b receptor binding assay; read-out: Rate of inhibition (V1b: % of inhibition)
Sequence (P47901 whole entry): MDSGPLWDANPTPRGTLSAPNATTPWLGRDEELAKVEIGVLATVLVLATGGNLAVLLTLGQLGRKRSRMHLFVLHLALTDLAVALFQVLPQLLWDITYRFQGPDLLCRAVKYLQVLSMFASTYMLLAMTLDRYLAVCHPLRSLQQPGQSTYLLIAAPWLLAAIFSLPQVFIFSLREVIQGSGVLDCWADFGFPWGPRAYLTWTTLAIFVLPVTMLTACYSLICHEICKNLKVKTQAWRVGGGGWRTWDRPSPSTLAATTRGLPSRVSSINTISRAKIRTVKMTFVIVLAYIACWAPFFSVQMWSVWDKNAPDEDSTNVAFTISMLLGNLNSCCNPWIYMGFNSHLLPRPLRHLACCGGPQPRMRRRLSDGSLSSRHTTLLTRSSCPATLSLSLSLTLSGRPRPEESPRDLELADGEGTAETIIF
# inhibition at 0.1 µM listing for each entry below
I only need the number, in %, no unit after it.

>  <Compound>
COc1ccc(S(=O)(=O)N2C(=O)C(c3cccc4c3OCO4)(N3C[C@H](O)C[C@H]3C(=O)N(C)C)c3cc(Br)ccc32)c(OC(F)(F)F)c1 (single isomer, unassigned)

>  <Unit Abbreviation>
%

>  <inhibition at 0.1 µM>
102

$$$$
>  <Compound>
COc1ccc(S(=O)(=O)N2C(=O)C(c3cc(C)ccc3OC)(N3C[C@H](OCCCO)C[C@H]3C(=O)N(C)C)c3cc(Cl)ccc32)c(OC(F)(F)F)c1 (stereo partly drawn)

>  <Unit Abbreviation>
%

>  <inhibition at 0.1 µM>
103

$$$$
>  <Compound>
COC(=O)[C@@H]1C[C@@H](O)CN1C1(c2cc(C)ccc2OC)C(=O)N(S(=O)(=O)c2ccc(OC)cc2OC(F)(F)F)c2ccc(Cl)cc21 (single isomer, unassigned)

>  <Unit Abbreviation>
%

>  <inhibition at 0.1 µM>
92

$$$$
>  <Compound>
COc1ccc(S(=O)(=O)N2C(=O)C(c3cc(CCN(C)C)ccc3OC)(N3C[C@H](O)C[C@H]3C(=O)N(C)C)c3cc(Cl)ccc32)c(OC(F)(F)F)c1 (stereo partly drawn)

>  <Unit Abbreviation>
%

>  <inhibition at 0.1 µM>
102

$$$$

Documented inhibition at 0.1 µM of COc1ccc(S(=O)(=O)N2C(=O)C(c3cc(N(C)C)ccc3OC)(N3C[C@H](O)C[C@H]3C(=O)N(C)C)c3cc(Cl)ccc32)c(OC(F)(F)F)c1 (single isomer, unassigned) : 93

Documented inhibition at 0.1 µM of COc1ccc(S(=O)(=O)N2C(=O)C(c3cccc4c3OCC4)(N3CCCC[C@H]3C(=O)N(C)C)c3cc(Cl)ccc32)c(OC(F)(F)F)c1 (stereo partly drawn) : 97

Documented inhibition at 0.1 µM of COc1ccc(S(=O)(=O)N2C(=O)C(c3cc(C)ccc3OC)(N3C[C@H](OCCC(N)=O)C[C@H]3C(=O)N(C)C)c3cc(Cl)ccc32)c(OC(F)(F)F)c1 (stereo partly drawn) : 95

Documented inhibition at 0.1 µM of COc1ccc(S(=O)(=O)N2C(=O)C(c3cc(C)ccc3OC)(N3C[C@H](OCCCN4CCN(C)CC4)C[C@H]3C(=O)N(C)C)c3cc(Cl)ccc32)c(OC(F)(F)F)c1 (stereo partly drawn) : 100

Documented inhibition at 0.1 µM of COc1ccc(S(=O)(=O)N2C(=O)C(c3cc(CC#N)ccc3OC)(N3C[C@H](O)C[C@H]3C(=O)N(C)C)c3cc(Cl)ccc32)c(OC(F)(F)F)c1 (single isomer, unassigned) : 93
